# target: Neuronal acetylcholine receptor; alpha4/beta2 (Homo sapiens, UniProt P17787+P43681)
# Sequence (P17787 whole entry): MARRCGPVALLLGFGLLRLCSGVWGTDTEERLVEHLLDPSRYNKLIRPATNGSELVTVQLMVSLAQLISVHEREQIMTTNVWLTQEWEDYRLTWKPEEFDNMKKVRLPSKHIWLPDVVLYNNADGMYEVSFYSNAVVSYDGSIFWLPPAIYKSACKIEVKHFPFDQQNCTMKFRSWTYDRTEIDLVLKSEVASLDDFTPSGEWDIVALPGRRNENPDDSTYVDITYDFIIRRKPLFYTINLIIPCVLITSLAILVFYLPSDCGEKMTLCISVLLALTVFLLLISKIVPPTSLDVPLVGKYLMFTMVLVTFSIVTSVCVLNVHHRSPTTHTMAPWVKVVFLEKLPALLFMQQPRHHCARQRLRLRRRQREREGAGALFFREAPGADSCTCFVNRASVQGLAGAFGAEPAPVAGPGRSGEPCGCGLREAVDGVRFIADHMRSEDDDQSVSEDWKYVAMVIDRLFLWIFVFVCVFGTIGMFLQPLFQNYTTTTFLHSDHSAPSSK
# Sequence (P43681 whole entry): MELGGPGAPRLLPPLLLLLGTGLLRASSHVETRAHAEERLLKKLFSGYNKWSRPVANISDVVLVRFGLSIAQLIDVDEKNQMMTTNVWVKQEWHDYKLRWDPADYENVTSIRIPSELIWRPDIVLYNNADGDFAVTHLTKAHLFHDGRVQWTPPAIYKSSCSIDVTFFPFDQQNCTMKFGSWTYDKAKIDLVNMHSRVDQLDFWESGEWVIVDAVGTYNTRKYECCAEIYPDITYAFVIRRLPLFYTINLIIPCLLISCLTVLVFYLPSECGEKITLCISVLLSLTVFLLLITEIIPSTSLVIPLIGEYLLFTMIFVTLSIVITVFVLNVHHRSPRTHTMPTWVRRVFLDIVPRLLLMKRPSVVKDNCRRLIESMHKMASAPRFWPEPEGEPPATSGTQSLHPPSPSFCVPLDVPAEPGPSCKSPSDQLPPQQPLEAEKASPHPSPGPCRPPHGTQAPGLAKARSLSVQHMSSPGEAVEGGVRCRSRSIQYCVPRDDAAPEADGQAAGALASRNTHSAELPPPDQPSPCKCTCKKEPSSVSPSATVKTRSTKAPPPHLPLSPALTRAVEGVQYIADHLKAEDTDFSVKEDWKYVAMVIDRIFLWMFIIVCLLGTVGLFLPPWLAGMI
# protocol_description: Agonist activity at human alpha4beta2 nAChR expressed in rat GH4C1 cells assessed as inward channel current amplitude at -70 mV holding potential by whole cell electrophysiology method
pEC50: −log10 of the molar value.
metric: pEC50

>  <chemical_smiles>
COc1ccc(Nc2cncc(N3CC4CC(C3)N4)c2)cc1

>  <result_modifier>
=

>  <data_value>
5.72

$$$$
>  <chemical_smiles>
O=[N+]([O-])c1ccc(Nc2ccc(N3CC4CC(C3)N4)cn2)cc1

>  <result_modifier>
<

>  <data_value>
5.00

$$$$

* * *

Entries annotated with measured Ki
# target: Neuronal acetylcholine receptor; alpha4/beta2 (Rattus norvegicus, UniProt P09483+P12390)
# Sequence (P09483 whole entry): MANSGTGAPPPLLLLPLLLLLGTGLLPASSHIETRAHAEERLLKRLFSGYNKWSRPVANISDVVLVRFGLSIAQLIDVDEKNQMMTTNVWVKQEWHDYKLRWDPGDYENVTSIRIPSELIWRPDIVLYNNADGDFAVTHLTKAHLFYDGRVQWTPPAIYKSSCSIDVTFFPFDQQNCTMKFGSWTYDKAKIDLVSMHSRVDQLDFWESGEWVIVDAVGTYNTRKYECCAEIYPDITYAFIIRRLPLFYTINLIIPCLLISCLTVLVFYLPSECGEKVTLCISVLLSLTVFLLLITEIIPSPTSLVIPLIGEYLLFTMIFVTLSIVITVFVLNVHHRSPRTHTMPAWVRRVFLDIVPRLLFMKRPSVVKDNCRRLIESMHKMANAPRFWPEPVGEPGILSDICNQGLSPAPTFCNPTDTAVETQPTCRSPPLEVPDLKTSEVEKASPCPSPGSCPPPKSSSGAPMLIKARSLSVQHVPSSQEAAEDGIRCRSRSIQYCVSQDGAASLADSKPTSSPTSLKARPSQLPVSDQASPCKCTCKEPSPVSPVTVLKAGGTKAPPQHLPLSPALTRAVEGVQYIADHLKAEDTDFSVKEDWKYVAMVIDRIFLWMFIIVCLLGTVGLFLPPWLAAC
# Sequence (P12390 whole entry): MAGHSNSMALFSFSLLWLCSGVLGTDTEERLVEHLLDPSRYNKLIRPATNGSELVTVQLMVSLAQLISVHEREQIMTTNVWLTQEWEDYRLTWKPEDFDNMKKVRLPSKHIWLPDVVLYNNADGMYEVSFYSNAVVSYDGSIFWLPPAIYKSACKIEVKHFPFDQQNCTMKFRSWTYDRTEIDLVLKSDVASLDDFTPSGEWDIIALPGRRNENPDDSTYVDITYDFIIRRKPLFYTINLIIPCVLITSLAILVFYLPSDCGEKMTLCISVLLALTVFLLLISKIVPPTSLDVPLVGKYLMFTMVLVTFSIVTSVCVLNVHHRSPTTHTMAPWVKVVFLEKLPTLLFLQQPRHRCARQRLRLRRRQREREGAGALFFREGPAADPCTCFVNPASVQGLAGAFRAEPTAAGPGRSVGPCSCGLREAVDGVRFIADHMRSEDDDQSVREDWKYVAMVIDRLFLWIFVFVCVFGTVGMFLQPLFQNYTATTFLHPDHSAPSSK
# protocol_description: Displacement of [3H]epibatidine from alpha4beta2 nAChR in rat cortex membranes

>  <chemical_smiles>
Oc1ccc(Nc2ccc(N3CC4CC(C3)N4)cn2)cc1

>  <Ki [nM]>
7.1

$$$$
>  <chemical_smiles>
Cc1ccc(Nc2ccc(N3CC4CC(C3)N4)cn2)cc1

>  <Ki [nM]>
52.1

$$$$
>  <chemical_smiles>
FC(F)(F)c1ccc(Nc2cncc(N3CC4CC(C3)N4)c2)cc1

>  <Ki [nM]>
0.373

$$$$
>  <chemical_smiles>
c1ccc(Nc2ccc(N3CC4CC(C3)N4)cn2)cc1

>  <Ki [nM]>
2.66

$$$$
>  <chemical_smiles>
Clc1ccc(Nc2ccc(N3CC4CC(C3)N4)cn2)cc1Cl

>  <Ki [nM]>
2.3

$$$$
>  <chemical_smiles>
Cc1ccc(Nc2cncc(N3CC4CC(C3)N4)c2)cc1

>  <Ki [nM]>
0.148

$$$$
>  <chemical_smiles>
Oc1ccc(Nc2cncc(N3CC4CC(C3)N4)c2)cc1

>  <Ki [nM]>
0.342

$$$$
>  <chemical_smiles>
c1cc2c(cc1Nc1ccc(N3CC4CC(C3)N4)cn1)OCO2

>  <Ki [nM]>
41

$$$$
>  <chemical_smiles>
Clc1cccc(Nc2cncc(N3CC4CC(C3)N4)c2)c1

>  <Ki [nM]>
0.124

$$$$
>  <chemical_smiles>
COc1ccc(Nc2cncc(N3CC4CC(C3)N4)c2)cc1

>  <Ki [nM]>
0.0598

$$$$
>  <chemical_smiles>
c1ccc(Nc2ccc(N3CC4CC(C3)N4)nn2)cc1

>  <Ki [nM]>
441

$$$$
>  <chemical_smiles>
Fc1ccc(Nc2cncc(N3CC4CC(C3)N4)c2)cc1

>  <Ki [nM]>
0.091

$$$$
>  <chemical_smiles>
O=[N+]([O-])c1ccc(Nc2ccc(N3CC4CC(C3)N4)cn2)cc1

>  <Ki [nM]>
1.76

$$$$
>  <chemical_smiles>
Cc1ccc(Nc2ccc(N3CC4CC(C3)N4)nn2)cc1

>  <Ki [nM]>
44.3

$$$$
>  <chemical_smiles>
Clc1ccc(Nc2cncc(N3CC4CC(C3)N4)c2)cc1

>  <Ki [nM]>
0.118

$$$$
>  <chemical_smiles>
Fc1ccc(Nc2ccc(N3CC4CC(C3)N4)nn2)cc1

>  <Ki [nM]>
868

$$$$
>  <chemical_smiles>
O=[N+]([O-])c1ccc(Nc2cncc(N3CC4CC(C3)N4)c2)cc1

>  <Ki [nM]>
0.0225

$$$$
>  <chemical_smiles>
c1ccc(Nc2cncc(N3CC4CC(C3)N4)c2)cc1

>  <Ki [nM]>
0.0807

$$$$
>  <chemical_smiles>
Clc1ccc(Nc2ccc(N3CC4CC(C3)N4)nn2)cc1Cl

>  <Ki [nM]>
516

$$$$
>  <chemical_smiles>
FC(F)(F)c1ccc(Nc2ccc(N3CC4CC(C3)N4)nn2)cc1

>  <Ki [nM]>
6.9

$$$$
>  <chemical_smiles>
O=[N+]([O-])c1ccc(Nc2ccc(N3CC4CC(C3)N4)nn2)cc1

>  <Ki [nM]>
86.2

$$$$
>  <chemical_smiles>
Clc1ccc(Nc2ccc(N3CC4CC(C3)N4)nn2)cc1

>  <Ki [nM]>
90.4

$$$$
>  <chemical_smiles>
CN(c1ccccc1)c1ccc(N2CC3CC(C2)N3)nn1

>  <Ki [nM]>
1430

$$$$
>  <chemical_smiles>
COc1ccc(Nc2ccc(N3CC4CC(C3)N4)cn2)cc1

>  <Ki [nM]>
7.3

$$$$
>  <chemical_smiles>
Clc1cccc(Nc2ccc(N3CC4CC(C3)N4)nn2)c1

>  <Ki [nM]>
1540

$$$$
